tested on: writhing behavior; assay: Analgesic action by a writhing method using acetic acid; type: in vivo, Male mice of a ddY strain; conditions: sc; statistically minimum effective dose; 0.6% acetic acid ip 15 minutes after the drug, writhing counted for ten minutes; mice
Where a name gives a salt, the structure may show the parent alone.
The reader will find reported Analgesic Action (minimum effective dose) values listed item by item below.
Reply with the number and its unit after it.

The following molecules have reported results that may help.
MOLECULE	RECORDED VALUE
CCN1CCN(c2nc(-c3cccc(CCCO)c3)cc3ccccc23)CC1 [(22), hydrochloride]	3 mg/kg
CCCNC(=O)c1ccc(-c2cc3ccccc3c(N3CCN(CC)CC3)n2)cc1 [(18), hydrochloride]	1 mg/kg

// switching to the query molecule
q: Please report the recorded Analgesic Action (minimum effective dose) for CCN1CCN(c2nc(-c3ccc(CCC(C)(C)O)c(F)c3)cc3ccccc23)CC1.Cl .
a: 1 mg/kg

---

Below, each entry is listed with its recorded Analgesic Action (minimum effective dose).
test system: writhing behavior; experiment: Analgesic action by a writhing method using acetic acid; type: in vivo, Male mice of a ddY strain; conditions: sc; statistically minimum effective dose; 0.6% acetic acid ip 15 minutes after the drug, writhing counted for ten minutes; mice

q: Tell me reported Analgesic Action (minimum effective dose) for NC(=O)Cc1ccc2ccn(C3CCN(CCc4ccc(F)cc4)CC3)c2c1 , tested with writhing behavior.
a: > 3 mg/kg

q: Record lookup: for writhing behavior, what Analgesic Action (minimum effective dose) belongs to COc1ccc(CCN2CCC(n3ccc4ccc(CNC(C)=O)cc43)CC2)cc1 ?
a: 10 mg/kg

---

biological target: 5HT2 (Homo sapiens, UniProt P28223); test: Serotonin (5HT) receptor binding action (RBA; in vitro), 5HT2; conditions: method of JP98/01481 or JP-A 10-281752
Sequence (P28223 whole entry, species assumed): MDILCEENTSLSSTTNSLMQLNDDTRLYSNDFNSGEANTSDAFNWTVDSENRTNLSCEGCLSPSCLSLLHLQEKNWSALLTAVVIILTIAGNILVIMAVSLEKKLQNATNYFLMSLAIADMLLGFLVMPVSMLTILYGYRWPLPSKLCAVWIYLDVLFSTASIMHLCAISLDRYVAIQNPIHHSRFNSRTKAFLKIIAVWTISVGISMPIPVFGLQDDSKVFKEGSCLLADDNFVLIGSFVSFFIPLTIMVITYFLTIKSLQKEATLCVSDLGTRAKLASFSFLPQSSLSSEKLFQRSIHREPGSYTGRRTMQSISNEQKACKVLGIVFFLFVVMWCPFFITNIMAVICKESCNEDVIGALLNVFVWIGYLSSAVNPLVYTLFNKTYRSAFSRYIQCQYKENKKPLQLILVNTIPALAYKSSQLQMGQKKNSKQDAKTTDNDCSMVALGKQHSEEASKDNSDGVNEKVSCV
Where a name gives a salt, the structure may show the parent alone.
Rule: Ki below 3 nM gives fulfilled. Equal to or above 3 nM gives not fulfilled.

The following molecules have reported results that may help.
MOLECULE	LABEL
COc1ccccc1N1CCN(CCN(C(=O)C2CCCCC2)c2ccccn2)CC1 [WAY-100,635, reference compound]	not fulfilled
CCCNC(=O)c1ccc(-c2cc3ccccc3c(N3CCN(CC)CC3)n2)cc1 [(18), hydrochloride]	fulfilled
COc1ccc(CCN2CCC(n3ccc4ccc(CNC(C)=O)cc43)CC2)cc1	not fulfilled
CCN1CCN(c2nc(-c3ccc(OC)cc3)cc3ccccc23)CC1	not fulfilled
CCCS(=O)(=O)NCc1ccc(-c2cc3ccccc3c(N3CCN(CC)CC3)n2)cc1Cl.Cl [(23), hydrochloride]	fulfilled
CCC(=O)NCc1ccc2ccn(C3CCN(CCc4ccc(F)cc4)CC3)c2c1	fulfilled
CCN1CCN(c2nc(-c3ccc(OCC(C)(C)O)cc3)cc3sccc23)CC1.Cl [(25), hydrochloride]	fulfilled

Read the next record carefully.
q: # check: Ki < 3 nM for CCN1CCN(c2nc(-c3ccc(CCCO)c(OC)c3)cc3ccccc23)CC1.Cl [(20), hydrochloride]
a: not fulfilled

---

Here the recorded Analgesic Action (minimum effective dose) is given for each entry.
test system: writhing behavior; test: Analgesic action by a writhing method using acetic acid; assay type: in vivo, Male mice of a ddY strain; conditions: sc; statistically minimum effective dose; 0.6% acetic acid ip 15 minutes after the drug, writhing counted for ten minutes; mice
// return numeric value only (unit: mg/kg, not printed)

COMPOUND	ASSAY SYSTEM	RECORDED VALUE
COc1ccccc1N1CCN(CCN(C(=O)C2CCCCC2)c2ccccn2)CC1 [WAY-100,635, reference compound]	writhing behavior	3
CCNC(=O)Cc1ccc2ccn(C3CCN(CCc4ccccc4F)CC3)c2c1	writhing behavior	3
CCN1CCN(c2nc(-c3ccc(OCC(C)(C)O)cc3)cc3sccc23)CC1.Cl	writhing behavior	10
CCN1CCN(c2nc(-c3ccc(C(C)O)cc3)cc3sccc23)CC1.O=C(O)C(=O)O (stereo not drawn)	writhing behavior	1
COc1cccc(C(O)C2CCN(CCc3ccc(F)cc3)CC2)c1OC (stereo not drawn) [MDL-100,907, reference compound]	writhing behavior	3
CCN1CCN(c2nc(-c3ccc(OCCO)cc3)cc3ccccc23)CC1	writhing behavior	1

Okay, now this compound:
q: Name the recorded Analgesic Action (minimum effective dose) for NC(=O)Cc1ccc2ccn(C3CCN(CCc4ccccc4F)CC3)c2c1 .
a: 3
